Molecular target: human prostanoid FP receptor (Homo sapiens, UniProt P43088)
Construct: expressed in transfected cells
Sequence (P43088 whole entry): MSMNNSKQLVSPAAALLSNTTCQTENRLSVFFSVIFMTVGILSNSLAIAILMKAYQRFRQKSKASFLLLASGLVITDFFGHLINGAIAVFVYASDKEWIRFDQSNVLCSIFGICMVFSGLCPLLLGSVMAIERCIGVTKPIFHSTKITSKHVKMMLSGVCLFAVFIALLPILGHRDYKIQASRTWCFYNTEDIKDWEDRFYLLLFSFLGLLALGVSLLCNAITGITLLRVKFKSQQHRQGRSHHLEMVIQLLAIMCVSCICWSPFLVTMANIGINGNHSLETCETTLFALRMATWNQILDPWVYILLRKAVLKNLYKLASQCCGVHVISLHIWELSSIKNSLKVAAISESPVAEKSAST
Experiment: FLIPR Ca2+ signaling antagonist assay, FP receptor stable cell line
Format: cell-based
Conditions: HEK-293 EBNA stable cell line; standard agonist 17-phenyl-PGF2α; NA = inactive (no antagonism or Kb 10,000 nM); PAg, Ag not defined
Category key, based on recorded Kb: Low = under 90 nM, Medium = from 90 nM up to 1000 nM, High = 1000 nM and over

compound=Cc1cc(CCC(=O)O)nn1Cc1cc(Br)ccc1OCC1CCC1 cat=Low
compound=COc1ccc(OCC2CCCC2)c(Cn2nc(CCC(=O)O)cc2C)c1 cat=High
compound=Cc1cc(CCC(=O)NS(=O)(=O)C(F)(F)F)nn1Cc1cc(Cl)ccc1CCC1CCCC1 cat=High
compound="CCC(C)COc1ccc(Br)cc1Cn1nc(CCC(=O)O)cc1C (stereo not drawn)" cat=Low
compound=CCC(CC)COc1ccc(C#N)cc1Cn1nc(CCC(=O)O)cc1C cat=High
compound=CCC(CC)COc1ccc(C(F)(F)F)cc1Cn1nc(CCC(=O)O)cc1C cat=Medium
compound=Cc1cc(CCC(=O)NS(=O)(=O)C(F)(F)F)nn1Cc1cc(Br)ccc1OCC(C)C cat=Medium
compound="Cc1cc(CC(C)C(=O)O)nn1Cc1cc(Cl)ccc1OCC1CCCC1 (racemic)" cat=Medium
compound="CCCCC(CC)COc1ccc(Br)cc1Cn1nc(CCC(=O)O)cc1C (stereo not drawn)" cat=Medium
compound="CCC(CC)COc1ccccc1Cn1nc(CC(C)C(=O)O)cc1C (racemic)" cat=High
compound=CCC(CC)COc1ccc(C(C)(C)C)cc1Cn1nc(CCC(=O)O)cc1C cat=High
compound=Cc1cc(CCC(=O)O)nn1Cc1cc(Cl)ccc1OCc1ccc(Cl)cc1C(F)(F)F cat=High
compound=CCC(CC)COc1ccc(OC(F)(F)F)cc1Cn1nc(CCC(=O)O)cc1C cat=Medium
compound=Cc1cc(CC(C)(C)C(=O)O)nn1Cc1cc(Br)ccc1OCC1CCCC1 cat=Medium
compound=Cc1cc(CCC(=O)O)nn1Cc1cc(C(F)(F)F)ccc1OCc1ccc(Cl)cc1 cat=Low

Data origin: patent US9394284B2
